assay: Lapatinib pharmacokinetics and uptake in rat brain tissue (BT); assay type: in vivo, rats; details: male, Wistar, rat, brain tissue homogenate, corrected for residual blood, po, 100 mg/kg, lapatinib p.o. 100 mg/kg alone, 1 h; read-out: BT corr (BT homogenate corrected), S
OBSERVABLE: concentration at 1 h (ng/mL)
The figure you give is taken to be in ng/mL; do not add the unit.

Prompt: Tell us which concentration at 1 h value is on record for `CS(=O)(=O)CCNCc1ccc(-c2ccc3ncnc(Nc4ccc(OCc5cccc(F)c5)c(Cl)c4)c3c2)o1`
Response: 55.5

====

assay: Lapatinib pharmacokinetics in rat blood plasma (BP), HPLC-MS/MS, noncompartmental analysis; type: in vivo, rats; settings: male, Wistar, rat, plasma, po, 100 mg/kg, blood plasma; lapatinib 100 mg/kg oral alone (IIL); read-out: MRT0-t
OBSERVABLE: MRT last (h)
The figure you give is taken to be in h; do not add the unit.

Prompt: Tell us which MRT last value is on record for `CS(=O)(=O)CCNCc1ccc(-c2ccc3ncnc(Nc4ccc(OCc5cccc(F)c5)c(Cl)c4)c3c2)o1`
Response: 5.7
